meta.source: patent US9617229B2

TGT: SERT (Rattus norvegicus)
ASSAY_NAME: 5-HT release assay (synaptosomes, [3H]5-HT)
Type: biochemical
Set-up: the supernatants were retained on ice (synaptosomal preparation); from tissue; host or cells: rat whole brain minus cerebellum and caudate, synaptosomes
pEC50: −log10 of the molar value.
Lab note: anything with pEC50 at or over 6 counts as criterion met; the rest go in criterion not met.

>  <COMPOUND>
C[C@H]1NCCOC1c1ccccc1 (some centres unmarked) [PAL55, reference compound]

>  <TGT>
SERT (Rattus norvegicus)

>  <GROUP_LABEL>
criterion not met

$$$$
>  <COMPOUND>
C[C@H]1NCCOC1c1cccc(Cl)c1 (stereo in doubt) [PAL594, 2-(3-chloro-phenyl)-3-methyl-morpholine]

>  <TGT>
SERT (Rattus norvegicus)

>  <GROUP_LABEL>
criterion met

$$$$
>  <COMPOUND>
C[C@H]1CO[C@@H](c2ccccc2)CN1 [PAL 730, (2S,5S)-5-Methyl-2-phenyl-morpholine]

>  <TGT>
SERT (Rattus norvegicus)

>  <GROUP_LABEL>
criterion met

$$$$
>  <COMPOUND>
C[C@H]1NCCOC1c1cccc(F)c1 (stereo in doubt) [PAL593, 2-(3-fluoro-phenyl)-3-methyl-morpholine]

>  <TGT>
SERT (Rattus norvegicus)

>  <GROUP_LABEL>
criterion not met

$$$$
>  <COMPOUND>
C[C@H]1CO[C@@H](c2cccc(Cl)c2)CN1 [PAL 738]

>  <TGT>
SERT (Rattus norvegicus)

>  <GROUP_LABEL>
criterion met

$$$$
>  <COMPOUND>
Fc1ccc(C2CNCCO2)cc1 (centres unmarked) [PAL635, 2-(4-fluorophenyl)morpholine]

>  <TGT>
SERT (Rattus norvegicus)

>  <GROUP_LABEL>
criterion not met

$$$$
>  <COMPOUND>
c1ccc(C2CNCCO2)cc1 (centres unmarked) [PAL632]

>  <TGT>
SERT (Rattus norvegicus)

>  <GROUP_LABEL>
criterion not met

$$$$

Now consider a different compound.
Q) Is reported pEC50 greater than or equal to 6 here: C[C@H]1NCCO[C@@H]1c1ccccc1 [PAL56, (+)-phenmetrazine, reference compound]
A) criterion not met

====

TGT: SERT (Rattus norvegicus)
ASSAY_NAME: 5HT uptake inhibition
Type: biochemical
Where a name gives a salt, the structure may show the parent alone.
ENDPOINT_LABEL: EC50 (nM)
A number alone suffices; assume nM.

Q) Name the recorded EC50 for CC1NCCOC1c1ccc2ccccc2c1 (stereo not shown) [PAL 704, hydrochloride] .
A) 105

====

TGT: 5-HT2B receptor (Homo sapiens)
Sequence (P41595 whole entry): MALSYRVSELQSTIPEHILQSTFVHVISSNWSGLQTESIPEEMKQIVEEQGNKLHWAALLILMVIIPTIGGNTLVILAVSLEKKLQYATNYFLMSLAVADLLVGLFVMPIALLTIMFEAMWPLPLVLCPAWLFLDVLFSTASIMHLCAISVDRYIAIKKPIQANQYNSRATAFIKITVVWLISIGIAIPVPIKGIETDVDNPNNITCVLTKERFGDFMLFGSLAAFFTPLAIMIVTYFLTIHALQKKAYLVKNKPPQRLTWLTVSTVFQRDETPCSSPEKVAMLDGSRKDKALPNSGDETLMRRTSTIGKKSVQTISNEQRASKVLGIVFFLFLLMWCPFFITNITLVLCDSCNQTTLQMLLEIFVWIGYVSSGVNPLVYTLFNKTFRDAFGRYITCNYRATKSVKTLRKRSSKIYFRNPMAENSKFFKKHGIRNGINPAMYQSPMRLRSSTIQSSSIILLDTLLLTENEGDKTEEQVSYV
ASSAY_NAME: 5-HT2B activity, agonist
Assay type: cell-based
ENDPOINT_LABEL: activation at 10 µM (%)
A number alone suffices; assume %.

>  <COMPOUND>
C[C@H]1NCCOC1c1ccccc1 (stereo partly shown) [PAL55, reference compound]

>  <activation at 10 µM / %>
0

$$$$
>  <COMPOUND>
C[C@H]1NCCO[C@@H]1c1ccccc1 [PAL56, (+)-phenmetrazine, reference compound]

>  <activation at 10 µM / %>
0

$$$$
>  <COMPOUND>
Fc1ccc(C2CNCCO2)cc1 (stereo not shown)

>  <activation at 10 µM / %>
0

$$$$
>  <COMPOUND>
c1ccc(C2CNCCO2)cc1 (stereo not shown)

>  <activation at 10 µM / %>
2

$$$$
>  <COMPOUND>
C[C@H]1NCCOC1c1cccc(Cl)c1 (stereo in doubt)

>  <activation at 10 µM / %>
2

$$$$

Q) Name the recorded activation at 10 µM for C[C@H]1NCCO[C@H]1c1ccccc1 [PAL60, reference compound] .
A) 0

Q) And the next one, CC1NCCOC1(O)c1cccc(Cl)c1 (stereo not shown) ?
A) 0

====

TGT: DAT (Rattus norvegicus)
ASSAY_NAME: DA release assay (synaptosomes, [3H]MPP+)
Format: biochemical
Set-up: the supernatants were retained on ice (synaptosomal preparation); from tissue; host or cells: rat caudate synaptosomes
Where a name gives a salt, the structure may show the parent alone.
ENDPOINT_LABEL: DA releaser activity (in words)

>  <MOLECULE>
CC1NCCOC1c1ccc(Cl)c(Cl)c1.Cl (stereo not shown) [PAL 788]

>  <ENDPOINT_LABEL>
DA releaser activity (in words)

>  <OBSERVED_MEASUREMENT>
DA/NE releasers

$$$$
>  <MOLECULE>
CC1NCCOC1c1ccc2ccccc2c1 (stereo not shown) [PAL 704, hydrochloride]

>  <ENDPOINT_LABEL>
DA releaser activity (in words)

>  <OBSERVED_MEASUREMENT>
DA/NE releasers

$$$$

====

TGT: SERT (Rattus norvegicus, UniProt P31652)
Sequence (P31652 whole entry): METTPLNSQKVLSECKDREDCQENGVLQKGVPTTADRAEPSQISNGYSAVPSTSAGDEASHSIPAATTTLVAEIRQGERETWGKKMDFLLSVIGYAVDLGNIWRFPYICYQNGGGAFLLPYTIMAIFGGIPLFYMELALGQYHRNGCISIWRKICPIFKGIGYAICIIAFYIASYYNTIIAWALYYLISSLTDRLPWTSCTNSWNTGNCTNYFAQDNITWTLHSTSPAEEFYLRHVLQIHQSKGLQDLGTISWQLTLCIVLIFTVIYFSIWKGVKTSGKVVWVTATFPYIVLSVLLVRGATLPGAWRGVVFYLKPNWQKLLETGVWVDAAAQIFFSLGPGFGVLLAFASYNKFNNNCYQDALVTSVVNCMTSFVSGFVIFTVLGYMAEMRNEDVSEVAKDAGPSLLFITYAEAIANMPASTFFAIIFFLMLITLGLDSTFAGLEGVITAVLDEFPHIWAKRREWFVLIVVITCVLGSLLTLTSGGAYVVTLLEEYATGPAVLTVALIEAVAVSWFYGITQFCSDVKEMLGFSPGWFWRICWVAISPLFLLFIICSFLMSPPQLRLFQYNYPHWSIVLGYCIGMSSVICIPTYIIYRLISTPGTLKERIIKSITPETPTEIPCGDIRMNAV
ASSAY_NAME: 5-HT release assay (synaptosomes, [3H]5-HT)
Assay type: biochemical
Design: the supernatants were retained on ice (synaptosomal preparation); from tissue; host or cells: rat whole brain minus cerebellum and caudate, synaptosomes
SETTINGS: Table 4; % EC50 of release
Reported 5HT Rel (%) is given for each of the following compounds.
A number alone suffices; assume %.

Past entries and their recorded results:
>  <COMPOUND>
CC1NCCOC1c1ccc(F)c(Cl)c1.Cl (stereo not shown)

>  <UNIT_TEXT>
%

>  <5HT Rel (%)>
71

$$$$
>  <COMPOUND>
CC1NCCOC1c1ccc(Cl)cc1.CC1NCCOC1c1ccc(Cl)cc1.O=C(O)/C=C/C(=O)O (stereo not shown)

>  <UNIT_TEXT>
%

>  <5HT Rel (%)>
76

$$$$
>  <COMPOUND>
Cc1cccc(C2OCCNC2C)c1.Cc1cccc(C2OCCNC2C)c1.O=C(O)/C=C/C(=O)O (stereo not shown)

>  <UNIT_TEXT>
%

>  <5HT Rel (%)>
82

$$$$

Q) Name the recorded 5HT Rel (%) for COc1ccc(C2OCCNC2C)cc1.Cl (stereo not shown) .
A) 64

====

TGT: DAT (Rattus norvegicus, UniProt P23977)
Sequence (P23977 whole entry): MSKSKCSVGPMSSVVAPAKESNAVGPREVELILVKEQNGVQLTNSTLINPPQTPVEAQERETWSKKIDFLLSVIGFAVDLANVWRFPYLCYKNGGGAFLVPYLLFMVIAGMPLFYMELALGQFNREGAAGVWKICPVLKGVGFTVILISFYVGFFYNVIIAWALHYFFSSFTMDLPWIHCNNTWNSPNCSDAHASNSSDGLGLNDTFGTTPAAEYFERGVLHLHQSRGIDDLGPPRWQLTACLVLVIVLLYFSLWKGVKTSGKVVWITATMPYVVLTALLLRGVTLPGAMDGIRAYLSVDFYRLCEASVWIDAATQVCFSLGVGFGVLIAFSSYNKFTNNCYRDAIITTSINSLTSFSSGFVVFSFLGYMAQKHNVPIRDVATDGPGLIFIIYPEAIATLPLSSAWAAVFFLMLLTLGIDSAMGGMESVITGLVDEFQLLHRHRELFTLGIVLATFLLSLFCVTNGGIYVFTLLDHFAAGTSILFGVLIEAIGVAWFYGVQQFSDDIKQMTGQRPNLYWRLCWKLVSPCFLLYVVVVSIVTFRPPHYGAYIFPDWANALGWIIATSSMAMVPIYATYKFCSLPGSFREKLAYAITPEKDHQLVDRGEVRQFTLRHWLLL
ASSAY_NAME: DA release assay (synaptosomes, [3H]MPP+)
Structures can show the parent of a compound that is named as a salt.
ENDPOINT_LABEL: EC50
Give the figure together with its unit, number first.

>  <COMPOUND>
c1ccc(C2CNCCO2)cc1 (stereo not shown)

>  <OBSERVED_MEASUREMENT>
86 nM

$$$$

Q) So what EC50 did C[C@H]1NCCO[C@@H]1c1ccccc1 [PAL56, (+)-phenmetrazine, reference compound] get with DAT (Rattus norvegicus, UniProt P23977)?
A) 87 nM

Q) And the next one, CC1NCCOC1c1ccc2ccccc2c1 (stereo not shown) [PAL 704, hydrochloride] ?
A) 111 nM

Q) And the next one, C[C@H]1NCCOC1c1ccccc1 (stereo partly shown) [PAL55, reference compound] ?
A) 131 nM

====

Reported activation at 10 µM is given for each of the following molecules.
TGT: SERT (Rattus norvegicus, UniProt P31652)
ASSAY_NAME: 5-HT release assay (synaptosomes, [3H]5-HT)
Format: biochemical
Parameters: the supernatants were retained on ice (synaptosomal preparation); from tissue; host or cells: rat whole brain minus cerebellum and caudate, synaptosomes
SETTINGS: Table 3; 10 μM
Give the figure together with its unit, number first.

Past entries and their recorded results:
>  <MOLECULE>
C[C@H]1NCCOC1c1cccc(Cl)c1 (stereo in doubt) [PAL594, 2-(3-chloro-phenyl)-3-methyl-morpholine]

>  <activation at 10 µM>
95%

$$$$
>  <MOLECULE>
CC1NCCOC1(O)c1cccc(Cl)c1 (stereo not shown) [PAL590]

>  <activation at 10 µM>
41%

$$$$
>  <MOLECULE>
CC1NCCOC1(O)c1ccccc1 (stereo not shown) [PAL583, 3-methyl-2-phenylmorpholin-2-ol]

>  <activation at 10 µM>
0%

$$$$

Please examine the following record next.
Q) So what activation at 10 µM did Fc1ccc(C2CNCCO2)cc1 (stereo not shown) [PAL635, 2-(4-fluorophenyl)morpholine] get with SERT (Rattus norvegicus, UniProt P31652)?
A) 88%

====

TGT: NET (Rattus norvegicus, UniProt Q63380)
Construct: the supernatants were retained on ice (synaptosomal preparation); from tissue; host or cells: rat whole brain minus cerebellum and caudate, synaptosomes
Sequence (Q63380 1-617): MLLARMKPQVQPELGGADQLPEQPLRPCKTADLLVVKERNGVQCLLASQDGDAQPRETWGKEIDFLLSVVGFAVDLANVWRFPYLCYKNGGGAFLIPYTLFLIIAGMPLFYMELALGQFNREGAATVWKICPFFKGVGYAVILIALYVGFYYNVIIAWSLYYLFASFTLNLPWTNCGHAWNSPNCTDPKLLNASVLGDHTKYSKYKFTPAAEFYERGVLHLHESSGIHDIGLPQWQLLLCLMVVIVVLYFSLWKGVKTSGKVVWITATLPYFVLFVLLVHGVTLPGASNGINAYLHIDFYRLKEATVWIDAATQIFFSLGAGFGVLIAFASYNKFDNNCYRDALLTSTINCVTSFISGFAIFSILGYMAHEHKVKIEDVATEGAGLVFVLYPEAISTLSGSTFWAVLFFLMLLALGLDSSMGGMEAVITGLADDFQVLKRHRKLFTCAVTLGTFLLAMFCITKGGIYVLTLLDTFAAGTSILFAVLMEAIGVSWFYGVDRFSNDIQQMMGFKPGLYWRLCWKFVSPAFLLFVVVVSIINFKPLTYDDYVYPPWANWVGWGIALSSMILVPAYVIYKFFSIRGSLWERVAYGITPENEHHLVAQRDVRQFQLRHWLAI
ASSAY_NAME: NE release assay (synaptosomes, [3H]MPP+)
Type: biochemical
SETTINGS: Table 4; % EC50 of release
Reported NE Rel (%) is given for each of the following compounds.
A number alone suffices; assume %.

Past entries and their recorded results:
>  <COMPOUND>
COc1ccc(C2OCCNC2C)cc1.Cl (stereo not shown)

>  <UNIT_TEXT>
%

>  <NE Rel (%)>
84

$$$$
>  <COMPOUND>
CC1NCCOC1c1ccc(C#N)cc1.CC1NCCOC1c1ccc(C#N)cc1.O=C(O)/C=C/C(=O)O (stereo not shown)

>  <UNIT_TEXT>
%

>  <NE Rel (%)>
100

$$$$
>  <COMPOUND>
CC1NCCOC1c1ccc(F)cc1.CC1NCCOC1c1ccc(F)cc1.O=C(O)/C=C/C(=O)O (stereo not shown)

>  <UNIT_TEXT>
%

>  <NE Rel (%)>
93

$$$$

Please examine the following record next.
Q) Name the recorded NE Rel (%) for CC1NCCOC1c1ccc(Cl)c(Cl)c1.Cl (stereo not shown) .
A) 98
